# maps each entry to its growth
# Test system: MDA-MB-468 breast
# measurementProtocol: NCI-60 one-dose screen, 48 h (100 = growth as untreated, 0 = no growth, -100 = all killed)
# conditionSummary: 10 µM unless noted
The panel holds about 83,000 compounds, 20% with a hit somewhere; the sample as a whole holds those more often.
Field: numeric (%). Do not append units.

Consider the reported growth for these compounds:
| structure | readoutType | obsValue |
| --- | --- | --- |
| NC(N)=N/N=C/CO | growth | 107 |
| NS(=O)(=O)c1ccc(-n2cc(CN3CCNCC3)nn2)cc1 | growth | -22.4 |
| CN(C)C/C=C/C(=O)Nc1cc2c(Nc3ccc(F)c(Cl)c3F)ncnc2cc1OCCOC(F)F | growth | -40.8 |
| Clc1ccc(CNc2c3ccccc3nc3ccccc23)cc1 | growth | 29.6 |
| CSc1cccc([N+](=O)[O-])c1 | growth | 94.1 |
| CC(=O)Cc1nsc(NC(=O)c2ccoc2COc2ccccc2)n1 | growth | 124 |
| COC(/C=C/c1ccc([N+](=O)[O-])cc1)OC | growth | 73.4 |
| NC(=O)CN1CCN(c2ccccc2Cl)CC1 | growth | 108 |
| Nc1nnc2cc(F)ccc2n1 | growth | 122 |
| COc1ccc2c(c1)c(CC(=O)[Se]C)c(C)n2C(=O)c1ccc(Cl)cc1 | growth | -11.6 |

Could you now look at the following compound, please?
Data point: CC(C)[C@H](NC(=O)Cn1cc(C(=O)O)nn1)C(=O)O ; growth = 98.9

---

# Test system: MDA-MB-468 breast
# measurementProtocol: NCI-60 one-dose screen, 48 h
# conditionSummary: 10 µM unless noted
The panel holds about 83,000 compounds, 20% with a hit somewhere; the sample as a whole holds those more often. Active and inactive are the calls of the source. Rule for the calls: active = growth percent below 10; inactive = the rest.
Returns: one label drawn from active, inactive

Worked cases, answers included:
| compound | studyTarget | answerLabel |
| --- | --- | --- |
| CCN(CC)CCCC(C)N=C(C1=C(C(=NC(C)CCCN(CC)CC)c2cccc(OC)c2)C(=O)NC1=O)c1cccc(OC)c1 (stereo unspecified) | MDA-MB-468 breast | active |
| COc1ccc(/C=C/C(=O)c2ccc(B(O)O)cc2)cc1O | MDA-MB-468 breast | inactive |
| COc1cc(C(=O)n2nc(N3CCN(C)CC3)c3cc(N)ccc32)cc(OC)c1OC | MDA-MB-468 breast | active |
| Nc1ncc(-c2ccc3ncnc(N4CCc5ccc(Cl)cc54)c3c2)cn1 | MDA-MB-468 breast | active |
| CN(C)c1ccc(-c2cc(-c3ccc(Nc4nc(Nc5ccccc5)nc(Nc5ccc(Cl)cc5)n4)cc3)nc(N)n2)cc1 | MDA-MB-468 breast | inactive |

Please look at the following compound next.
Task item: Please indicate how the test categorized CCCn1cnc2c(c1=N)C(c1ccc(F)cc1)c1sc3c(C)cccc3c1O2 (stereo unspecified) .
Reply: active

---

# Tested on: MDA-MB-468 breast
# measurementProtocol: NCI-60 one-dose screen, 48 h
# conditionSummary: 10 µM unless noted
# Description: Growth inhibition of the MDA-MB-468 human Breast tumor cell line is measured as a screen for anti-cancer activity. Cells are grown in 96 well plates and exposed to the test compound for 48 hours. Compounds are tested at a single concentration, which is 10^-5 M for most compounds. The reported endpoint is percent growth (GI% or GIPRCNT), where numbers from 0 - 100% represent growth inhibition, and numbers from -100% - 0 represent cell death. […]
This is part of a sample that, as a whole, favours compounds with a hit. Of some 83,000 tested, about 20% had one in any assay. Calls of active or inactive are those of the source. Rule for the calls: active = growth percent below 10; inactive = the rest.
Bench note: report the call from active, inactive

Consider the following illustrative entries.
| compound | answerLabel |
| --- | --- |
| COc1cc(C2C=C(c3ccc(Cl)cc3)N=C3SC(C)=CN32)cc(OC)c1OC (stereo not drawn) | inactive |
| COc1ccc(Cn2cc3c(c2-c2ccccc2)CC(C)(C)c2cnoc2-3)cc1 | active |

Task item: Per the records of this test, what outcome belongs to O=C1OC(c2nc3ccccc3s2)=C/C1=C\c1ccc(O)cc1 ?
Reply: inactive

Task item: So what was the verdict on N/C(=N\N=C\c1ccc2c(c1)OCO2)N/N=C\c1ccc2c(c1)OCO2 in this test?
Reply: inactive

Task item: Recorded call for CCCc1cccc(CCC)c1O ?
Reply: inactive

Task item: Identify the outcome logged in this assay for the compound shown: CN(C)CCCn1c2c(c3ccc(N4CCNCC4)cc3c1=O)C(=O)c1ccccc1-2
Reply: active

---

# Test system: MDA-MB-468 breast
# measurementProtocol: NCI-60 one-dose screen, 48 h
# conditionSummary: 10 µM unless noted
This is part of a sample that, as a whole, favours compounds with a hit. Of some 83,000 tested, about 20% had one in any assay. The source made the active and inactive calls. Rule for the calls: active = growth percent below 10; inactive = the rest.
Output constraint: value belongs to 1 (active), -1 (inactive)

Solved entries:
| compound | studyTarget | answerLabel |
| --- | --- | --- |
| N#C/C(=C\c1ccc(-c2cc(C(F)(F)F)ccc2Cl)o1)c1nc(-c2ccco2)cs1 | MDA-MB-468 breast | 1 |
| OC(CCC(O)(c1ccccc1)c1ccccc1)(c1ccccc1)c1ccccc1 | MDA-MB-468 breast | -1 |
| CC/C=C\C[C@H](F)C/C=C1/C(=O)C=C[C@@H]1C/C=C\CCCC(=O)O | MDA-MB-468 breast | -1 |
| COC(OC)C1(c2ccccc2)NC(=O)NC1=O (stereo not drawn) | MDA-MB-468 breast | -1 |

Attention now shifts to the item below.
Task item: Assay result, entry C[C@@H](c1ccc2c(c1)[nH]c1ccc(Cl)cc12)c1nc2ccc(Cl)cc2[nH]1 — outcome?
Reply: 1

---

# Tested on: SNB-75 CNS
# measurementProtocol: NCI-60 one-dose screen, 48 h (100 = growth as untreated, 0 = no growth, -100 = all killed)
# conditionSummary: 10 µM
Compounds without any hit were thinned out: in the full panel of roughly 83,000, 20% have a hit.
# growth per entry
Numbers only; they are read as %.

For this molecule ( COc1ccc(Cc2nn(CC(=O)N/N=C/c3ccc([N+](=O)[O-])cc3)c(=O)c3c(C)noc23)cc1 ), measured growth is 99.8

So, Cn1cc(-c2cc3nc(-c4c[nH]c5ccccc45)cc(N)n3n2)c2cc(Cl)ccc21 ? Its growth was -65.9

Form: molecule = Cc1ccc2sc3c(c2c1)Oc1nc[nH]c(=O)c1C3c1cccc(F)c1 (centres undefined) ; growth = 84.2

Quick note, growth for COc1ccc(C2c3sc4ccc(C)cc4c3Oc3nc[nH]c(=O)c32)cc1 (centres undefined) landed at 45.8

---

# System: MDA-MB-468 breast
# measurementProtocol: NCI-60 one-dose screen, 48 h (100 = growth as untreated, 0 = no growth, -100 = all killed)
# conditionSummary: 10 µM unless noted
About 83,000 compounds went through this panel and 20% of them were active in at least one assay; those are over-represented in the sample as a whole.
# growth listing for each entry below
State the answer as a number, implicitly in %.

| structure | growth [%] |
| --- | --- |
| C[C@H]1[C@H](C)CC[C@]2(CO)CC[C@]3(C)C(=CC[C@@H]4[C@@]5(C)Cc6c([nH]c7ccccc67)C(C)(C)[C@@H]5CC[C@]43C)[C@H]12 | 77.8 |
| C=C(C)[C@@H]1CC[C@]2(C(=O)OCCOCCOCC[P+](c3ccccc3)(c3ccccc3)c3ccccc3)CC[C@]3(C)[C@H](CC[C@@H]4[C@@]5(C)CC[C@H](OC(=O)C(Cl)Cl)C(C)(C)[C@@H]5CC[C@]43C)[C@@H]12 | -53.7 |
| C[C@@H]1CC[C@@H]2[C@@H]1[C@H](OC(=O)c1ccc3ccccc3c1)[C@]1(C3CCCCC3)C[C@@H](OC(=O)CO)[C@@]2(C)O1 | 63.6 |
| COc1ccc(OC)c(CCn2cncc2-c2c[nH]c3cc(Br)ccc23)c1 | -5.69 |
| CC(=O)COc1ccc(Cl)cc1Cl | 92.4 |

Consider the additional compound presented here.
Item: CCCCCCCCCCCCSC1=C(Cl)C(=O)C(OC)=C(OC)C1=O | growth: 20.9

---

# System: MDA-MB-468 breast
# measurementProtocol: NCI-60 one-dose screen, 48 h
# conditionSummary: 10 µM unless noted
Compounds without any hit were thinned out: in the full panel of roughly 83,000, 20% have a hit. The source made the active and inactive calls. Rule for the calls: active = growth percent below 10; inactive = the rest.
Use one of these outcomes when replying: true (1) = active, false (0) = inactive

| compound | studyTarget | answerLabel |
| --- | --- | --- |
| CNCCNc1nc2ccccc2c2c(=O)c3cc(OC)ccc3sc12 | MDA-MB-468 breast | false (0) |
| Cc1ccc2c(c1)CC(O)CC1C(=O)N(CCO)CC(=O)N21 (stereo not given) | MDA-MB-468 breast | false (0) |
| C#Cc1nc(C2=C(C)C(=O)/C(=N/OC(C)=O)C2)cs1 | MDA-MB-468 breast | false (0) |
| COC(=O)C1CC(=O)N(C(=O)Nc2ccc(Cl)cc2Cl)C1 (stereo not given) | MDA-MB-468 breast | false (0) |
| O=C1Nc2cc(Cl)ccc2/C1=C\c1c(-c2ccc(F)cc2)nc2ccccn12 | MDA-MB-468 breast | true (1) |
| Oc1ccc(CSc2nnc(-c3ccc(Br)cc3)o2)c2cccnc12 | MDA-MB-468 breast | false (0) |

Task item: Which result was noted for this compound in the test: COc1ccc(S(=O)(=O)N(Cc2ccc3c(n2)C=CC(C)(C)O3)C2CCC2)cc1OC
Reply: true (1)

Task item: Just curious, what result did N=C(N)c1ccc(-c2ccc(-c3cc(Cl)cc(Cl)c3)o2)o1 get here?
Reply: true (1)

Task item: Assay outcome for CC(=O)c1c(/C=C/c2ccc(C)cc2)c2ccccc2[nH]c1=O : what was it?
Reply: false (0)
